Would you kindly list melting point for each of these compounds?

For record O=C(c1cc(Br)c(O)c(Br)c1)c1c(Cc2ccccc2)sc2ccccc12 [Example 11] the listed melting point is 155.5 to 156.5 °C

For record O=C(c1cc(I)c(O)c(I)c1)c1c(Cc2ccccc2)oc2ccccc12 [Example 9] the listed melting point is 153 to 154 °C

For record CCc1oc2ccccc2c1C(=O)c1cc(Br)c(O)c(Br)c1O [Example 4] the listed melting point is 150 to 151 °C

For record O=C(O)COc1c(I)cc(C(=O)c2c(Cc3ccccc3)oc3ccccc23)cc1I [Example 17] the listed melting point is 144 to 146 °C

For record O=C(O)COc1c(Br)cc(C(=O)c2c(Cc3ccccc3)oc3ccccc23)cc1Br [Example 10] the listed melting point is 165 to 167 °C

For record CCc1oc2ccccc2c1C(=O)c1c(Br)cc(Br)c(O)c1Br [Example 8] the listed melting point is 153 to 154 °C

For record CCCCc1oc2ccccc2c1Cc1cc(Br)c(O[C@H](Cc2ccccc2)C(=O)O)c(Br)c1 [Example 23] the listed melting point is 225 to 226 °C

For record CCCCc1oc2ccccc2c1C(=O)c1cc(Br)c(O[C@H](Cc2ccccc2)C(=O)O)c(Br)c1 [Example 22] the listed melting point is 56 to 58 °C

====

- experimental-target: rat hepatic microsomal PTPases
- condition-set: rat hepatic microsomal PTPase, dodecaphosphopeptide substrate 50 uM
readout-label: IC50 (µM)
Your answer is read as µM, so omit the unit and give the number.

For record CCc1oc2ccccc2c1C(=O)c1cc(Br)c(O)c(Br)c1O the listed IC50 is 34.3

For record CCc1oc2ccccc2c1C(=O)c1cc(Br)c(O)c(Br)c1 the listed IC50 is 70.1

For record CCc1oc2ccc(Cl)cc2c1C(=O)c1cc(Br)c(O)c(Br)c1 the listed IC50 is 27.1

For record CCc1oc2ccccc2c1C(=O)c1c(Br)cc(Br)c(O)c1Br the listed IC50 is 17.5

For record O=C(O)COc1c(I)cc(C(=O)c2c(Cc3ccccc3)oc3ccccc23)cc1I the listed IC50 is 28.4

For record O=C(c1cc(Br)c(OCP(=O)(O)O)c(Br)c1)c1c(Cc2ccccc2)sc2ccccc12 the listed IC50 is 34.5

For record CCCCc1oc2ccccc2c1Cc1cc(Br)c(OCC(=O)O)c(Br)c1 the listed IC50 is 22.7

For record O=C(c1cc(Br)c(O)c(Br)c1)c1c(Cc2ccccc2)sc2ccccc12 the listed IC50 is 33.9

For record CCCCc1oc2ccccc2c1C(=O)c1cc(Br)c(OCC(=O)O)c(Br)c1 the listed IC50 is 31.2

For record O=C(O)COc1c(Br)cc(C(=O)c2c(Cc3ccccc3)oc3ccccc23)cc1Br the listed IC50 is 36

For record O=C(O)COc1c(Br)cc(C(=O)c2c(Cc3ccccc3)sc3ccccc23)cc1Br the listed IC50 is 27.8

For record CCc1oc2ccccc2c1C(=O)c1cc(I)c(O)c(I)c1 the listed IC50 is 30.7

For record O=C(c1cc(Br)c(O)c(Br)c1)c1c(Cc2ccccc2)oc2ccccc12 the listed IC50 is 27.8

For record CCCCc1oc2ccccc2c1C(=O)c1cc(Br)c(O)c(Br)c1 the listed IC50 is 24.2

For record O=C(c1cc(Br)c(O)c(Br)c1)c1c(CCc2ccccc2)oc2ccccc12 the listed IC50 is 20.5

For record O=C(c1cc(I)c(O)c(I)c1)c1c(Cc2ccccc2)oc2ccccc12 the listed IC50 is 22.7

For record O=C(O)COc1c(Br)cc(C(=O)c2c(CCc3ccccc3)oc3ccccc23)cc1Br the listed IC50 is 26.3

For record CCc1oc2ccc(Cl)cc2c1C(=O)c1cc(Br)c(OCC(=O)O)c(Br)c1 the listed IC50 is 40.4

For record CCCCc1oc2ccccc2c1C(=O)c1cc(I)c(O)c(I)c1 the listed IC50 is 15.3

====

Would you kindly list melting point for each of these compounds?

For record CCCCc1oc2ccccc2c1Cc1cc(Br)c(OCC(=O)O)c(Br)c1 the listed melting point is 118 to 119 °C

For record CCCCc1oc2ccccc2c1C(=O)c1cc(Br)c(OCC(=O)O)c(Br)c1 the listed melting point is 92 to 94 °C

For record CCc1oc2ccc(Cl)cc2c1C(=O)c1cc(Br)c(OCC(=O)O)c(Br)c1 the listed melting point is 175 to 177 °C

For record O=C(O)COc1c(Br)cc(C(=O)c2c(Cc3ccccc3)sc3ccccc23)cc1Br the listed melting point is 162 to 163 °C

For record O=C(c1cc(Br)c(O)c(Br)c1)c1c(Cc2ccccc2)oc2ccccc12 the listed melting point is 156 to 158 °C

For record CCc1oc2ccccc2c1Cc1cc(Br)c(O)c(Br)c1 the listed melting point is 87 to 88 °C

For record CCc1oc2ccccc2c1C(=O)c1cc(Br)c(OCC(=O)O)c(Br)c1 the listed melting point is 135 to 137 °C

For record O=C(c1cc(Br)c(OCP(=O)(O)O)c(Br)c1)c1c(Cc2ccccc2)sc2ccccc12 the listed melting point is 210 to 212 °C

For record O=C(O)COc1c(Br)cc(C(=O)c2c(CCc3ccccc3)oc3ccccc23)cc1Br the listed melting point is 163 to 164 °C

For record O=C(c1cc(Br)c(O)c(Br)c1)c1c(CCc2ccccc2)oc2ccccc12 the listed melting point is 153 to 154 °C

====

- experimental-target: recombinant rat protein tyrosine phosphatase, PTP1B (rPTP1B) (Rattus norvegicus)
- Sequence (P20417 whole entry): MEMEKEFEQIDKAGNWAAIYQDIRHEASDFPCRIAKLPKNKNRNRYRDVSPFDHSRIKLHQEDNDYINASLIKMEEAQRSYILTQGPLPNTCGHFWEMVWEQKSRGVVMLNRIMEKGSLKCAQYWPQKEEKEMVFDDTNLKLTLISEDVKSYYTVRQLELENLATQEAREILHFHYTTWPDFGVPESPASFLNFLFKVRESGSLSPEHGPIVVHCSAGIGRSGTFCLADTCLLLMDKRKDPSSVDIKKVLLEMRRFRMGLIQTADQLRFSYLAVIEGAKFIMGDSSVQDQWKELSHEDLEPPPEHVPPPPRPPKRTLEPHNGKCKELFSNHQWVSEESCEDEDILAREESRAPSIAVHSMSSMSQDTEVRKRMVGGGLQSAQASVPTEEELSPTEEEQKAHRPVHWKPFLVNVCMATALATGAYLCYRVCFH
- Type: biochemical
- condition-set: 10 μM compound, rPTP1B
Would you kindly list % change from control at 10 μM for each of these compounds?

For record O=C(O)COc1c(Br)cc(C(=O)c2c(CCc3ccccc3)oc3ccccc23)cc1Br [Example 19] the listed % change from control at 10 μM is −53 (rPTP1B) %

For record O=C(c1cc(Br)c(OCP(=O)(O)O)c(Br)c1)c1c(Cc2ccccc2)sc2ccccc12 [Example 21] the listed % change from control at 10 μM is −35 (rPTP1B) %

For record CCCCc1oc2ccccc2c1Cc1cc(Br)c(OCC(=O)O)c(Br)c1 [Example 7] the listed % change from control at 10 μM is −99 (rPTP1B) %

For record O=C(O)COc1c(I)cc(C(=O)c2c(Cc3ccccc3)oc3ccccc23)cc1I [Example 17] the listed % change from control at 10 μM is −97 (rPTP1B) %

For record CCCCc1oc2ccccc2c1C(=O)c1cc(Br)c(OCC(=O)O)c(Br)c1 [Example 5] the listed % change from control at 10 μM is −78 (rPTP1B) %

For record O=C(O)COc1c(Br)cc(C(=O)c2c(Cc3ccccc3)sc3ccccc23)cc1Br [Example 12] the listed % change from control at 10 μM is −88 (rPTP1B) %

For record CCc1oc2ccccc2c1C(=O)c1cc(Br)c(OCC(=O)O)c(Br)c1 [Example 2] the listed % change from control at 10 μM is −30 (rPTP1B) %

For record CCc1oc2ccc(Cl)cc2c1C(=O)c1cc(Br)c(OCC(=O)O)c(Br)c1 [Example 20] the listed % change from control at 10 μM is −34 (rPTP1B) %

====

Would you kindly list change in vivo at 100 mg/kg for each of these compounds?
- Test system: diabetic (ob/ob) mice
- experimental-details: Blood glucose lowering activity in diabetic (ob/ob) mice
- Assay type: in vivo
- condition-set: Mus musculus, po, suffix a = no significant activity at this dose, read-out: % Change Insulin from Vehicle
Your answer is read as %, so omit the unit and give the number.

For record O=C(O)COc1c(Br)cc(C(=O)c2c(Cc3ccccc3)oc3ccccc23)cc1Br [Example 10] the listed change in vivo at 100 mg/kg is -70

For record CCc1oc2ccccc2c1C(=O)c1cc(Br)c(OCC(=O)O)c(Br)c1 [Example 2] the listed change in vivo at 100 mg/kg is -78.2

For record CCc1oc2ccccc2c1C(=O)c1cc(I)c(O)c(I)c1 [Example 18] the listed change in vivo at 100 mg/kg is -83.6

For record O=C(c1cc(Br)c(O)c(Br)c1)c1c(CCc2ccccc2)oc2ccccc12 [Example 15] the listed change in vivo at 100 mg/kg is -10.3

For record CCc1oc2ccccc2c1C(=O)c1cc(Br)c(O)c(Br)c1 [Example 1] the listed change in vivo at 100 mg/kg is -89.5

====

Would you kindly list pIC50 for each of these molecules?
- experimental-target: Human recombinant PTP1B (hPTP1B) (Homo sapiens, UniProt P18031)
- Construct: made in house
- Sequence (P18031 whole entry): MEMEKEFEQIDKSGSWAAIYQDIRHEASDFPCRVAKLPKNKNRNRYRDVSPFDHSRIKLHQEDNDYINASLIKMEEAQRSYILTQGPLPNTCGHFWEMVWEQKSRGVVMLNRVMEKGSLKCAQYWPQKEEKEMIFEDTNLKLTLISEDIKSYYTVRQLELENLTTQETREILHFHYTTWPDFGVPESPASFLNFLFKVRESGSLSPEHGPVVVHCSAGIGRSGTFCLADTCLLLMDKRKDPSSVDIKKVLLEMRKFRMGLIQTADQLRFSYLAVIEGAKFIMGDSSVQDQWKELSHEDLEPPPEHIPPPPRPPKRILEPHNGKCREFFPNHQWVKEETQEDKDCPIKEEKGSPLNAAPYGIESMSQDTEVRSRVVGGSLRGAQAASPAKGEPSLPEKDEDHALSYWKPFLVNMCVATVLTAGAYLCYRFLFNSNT
- Type: biochemical
- condition-set: hPTP1B
Would you please state pIC50, meaning minus log10 of the concentration in mol/L, as a bare number?

For record O=C(c1cc(Br)c(O)c(Br)c1)c1c(Cc2ccccc2)sc2ccccc12 [Example 11] the listed pIC50 is 5.71

For record CCCCc1oc2ccccc2c1Cc1cc(Br)c(OCC(=O)O)c(Br)c1 [Example 7] the listed pIC50 is 5.85

For record CCCCc1oc2ccccc2c1Cc1cc(Br)c(O[C@H](Cc2ccccc2)C(=O)O)c(Br)c1 [Example 23] the listed pIC50 is 6.06

For record CCCCc1oc2ccccc2c1C(=O)c1cc(Br)c(O[C@H](Cc2ccccc2)C(=O)O)c(Br)c1 [Example 22] the listed pIC50 is 5.94

For record CCCCc1oc2ccccc2c1C(=O)c1cc(I)c(O)c(I)c1 [Example 16] the listed pIC50 is 5.59
